biological target: Biotinylated recombinant human CD3εδ (Acro Biosystems, CDD-H82W6) (human) (UniProt P07766); experiment: Octet BLI, biotinylated CD3εδ on streptavidin sensors, 1:1 model
Sequence (P07766 23-126, stated change not applied, chain 1 of 2): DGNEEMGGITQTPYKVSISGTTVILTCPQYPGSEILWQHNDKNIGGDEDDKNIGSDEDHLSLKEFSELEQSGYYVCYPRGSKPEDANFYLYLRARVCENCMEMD
Sequence (P04234 22-105, stated change not applied, chain 2 of 2, further chain): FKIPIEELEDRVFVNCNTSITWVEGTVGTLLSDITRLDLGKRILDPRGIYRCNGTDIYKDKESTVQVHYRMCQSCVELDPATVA
measurement.label: Kd (nM)
Write the answer as a number in nM, unit excluded.

Consider the worked cases shown below.
- EGFR-CD3 DuetMab with anti-CD3 variant AZ Vκ 17 + AZ VH R75 (bispecific antibody, part only; not given: anti-EGFR arm, constant regions, V domains shown, not shown: another chain or arm of the molecule; a dimerising Fc or GST; small tags and cut ends) VH: EVQLVESGGALVKPGGSLRLSCAASGFTFTRAWMHWVRQAPGKQLEWVAQIKDRSQTYATYYAESVKGRFTISRDDSKNTLYLQMNSLKTEDTAVYYCRGVYYANAPFDYWGQGTLVTVSS VL: DIVMTQSPLSLPVTPGEPASISCRSSQSLVHNTGNTYLSWYLQKPGQSPQSLIYKVSNRASGVPDRFSGSGSGTDFTLKISRVEAEDVGVYYCGQGTQAPFTFGSGTKVEIK: 266
- EGFR-CD3 DuetMab with anti-CD3 variant AZ Vκ 29 + AZ VH R75 (bispecific antibody, part only; not given: anti-EGFR arm, constant regions, V domains shown, not shown: another chain or arm of the molecule; a dimerising Fc or GST; small tags and cut ends) VH: EVQLVESGGALVKPGGSLRLSCAASGFTFTRAWMHWVRQAPGKQLEWVAQIKDRSQTYATYYAESVKGRFTISRDDSKNTLYLQMNSLKTEDTAVYYCRGVYYANAPFDYWGQGTLVTVSS VL: DIVMTQSPLSLPVTPGEPASISCRSSQSLVHNTGNTYLSWYLQKPGQSPQSLIYKVSNRASGVPDRFSGSGSGTDFTLKISRVEAEDVGVYYCGQGTQFPFTFGSGTKVEIK: 224

Now for another entry.
The binder listed as EGFR-CD3 DuetMab with anti-CD3 variant AZ Vκ 17 + AZ VH E82 (bispecific antibody, part only; not given: anti-EGFR arm, constant regions, V domains shown, not shown: another chain or arm of the molecule; a dimerising Fc or GST; small tags and cut ends) VH: EVQLVESGGALVKPGGSLRLSCAASGFTFTEAWMHWVRQAPGKQLEWVAQIKDRSQTYATYYAESVKGRFTISRDDSKNTLYLQMNSLKTEDTAVYYCRGVYYANTPFDYWGQGTLVTVSS VL: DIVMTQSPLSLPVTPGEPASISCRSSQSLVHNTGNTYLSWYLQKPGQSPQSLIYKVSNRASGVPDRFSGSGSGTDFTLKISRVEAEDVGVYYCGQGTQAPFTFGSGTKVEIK shows Kd equal to 4610

# credit: patent US20250019438A1
